Where these numbers come from: patent US20110053897A1

Experimental target: Syk kinase (Homo sapiens)
Construct: purchased
Test description: Syk kinase inhibition, Caliper LabChip off-chip mobility-shift kinase assay
Format: biochemical
Experimental setup: read-out: Syk Enzyme IC50
pIC50: −log10 of the molar value.
Think of 7 as a floor: if pIC50 stands on it or above, it is yes; beneath it, no.

Please check the record `CCn1ccc2cc(Nc3cc(C)ccn3)nc(NC[C@@H]3CC[C@@H](O)C3)c2c1=O` and state if its pIC50 is at or above 7.
no

`COc1cncc(-c2cc3cc[nH]c(=O)c3c(Nc3ccc(C4CCN(C(=O)N5CCNC5=O)CC4)c(C)c3)n2)n1` , same question.
no

`Cc1ccnc(Nc2cc3ccn(CCO)c(=O)c3c(N[C@@H](C)CO)n2)c1` , same question.
yes

`CCN1CCN(Cc2n[nH]c3cc(Nc4nc(-c5cncnc5)cc5cc[nH]c(=O)c45)ccc23)CC1` , same question.
yes

`COc1cncc(-c2cc3cc[nH]c(=O)c3c(Nc3ccc(C4CCN(CC(=O)N5CCCC5)CC4)c(C)c3)n2)n1` , same question.
yes

`C[C@@H]1CN([C@H]2CC[C@H](c3ccc(Nc4nc(-c5cncnc5)cc5cc[nH]c(=O)c45)cc3)CC2)CCO1` , same question.
no

`COCCN1CCC(c2ccc(Nc3nc(-c4cncnc4)cc4cc[nH]c(=O)c34)cc2F)CC1` , same question.
yes

`O=c1[nH]ccc2cc(-c3cncnc3)nc(Nc3ccc([C@H]4CC[C@H](N5CCOCC5)CC4)cc3)c12` , same question.
no

`Cc1ccnc(Nc2cc3cc[nH]c(=O)c3c(NC[C@@H](O)c3cccc(Cl)c3)n2)c1` , same question.
no
